Target: DNA-PK(h) (Homo sapiens)
Test: Evaluation of inhibitory activity against DNA-PK (HTRF kinase assay, GST-cMyc-p53 substrate)
Type: biochemical
Details: compound concentration 0.01 μM; read-out: EXP_VALUE(% Inhibition) DNA-PK(h) 0.01 μM
Method: <Experimental Example 2> Evaluation of Inhibitory Activity Properties Against DNA-PK […] DNA-PK(h) was subjected to an isothermal treatment in an assay buffer comprising […] GST-cMyc-p53 and Mg/ATP (at a concentration as required). […] A plate was read in a time-resolved fluorescence mode and a homogeneous time-resolved fluorescence (HTRF) signal was determined according to HTRF=10000×(Em 665 nm/Em 620 nm).
Measured parameter: inhibition at 0.01 µM (%)

Given the entry C[C@H](Nc1ncnc2[nH]ccc(=O)c12)c1c(Cl)c2cccc(-c3ccccc3)c2c(=O)n1-c1ccccc1 , report its measured inhibition at 0.01 µM.
54

I am curious: what inhibition at 0.01 µM value has been reported for C[C@H](Nc1ncnc2[nH]ccc(=O)c12)c1c(Cl)c2cccc(NC(=O)C3CCC3)c2c(=O)n1-c1ccccc1 ?
50

Which inhibition at 0.01 µM is listed for CCCSc1cccc2c(Cl)c([C@H](C)Nc3ncnc4[nH]ccc(=O)c34)n(-c3ccccc3)c(=O)c12 ?
38

For the molecule C[C@H](Nc1ncnc2[nH]ccc(=O)c12)c1c(Cl)c2cccc(-c3cncc(N4CCOCC4)n3)c2c(=O)n1-c1ccccc1 , what inhibition at 0.01 µM is on record?
56

I: C[C@H](Nc1ncnc2[nH]ccc(=O)c12)c1c(Cl)c2cccc(-c3cnc(C(F)(F)F)cn3)c2c(=O)n1-c1ccccc1
II: Cc1ccc(F)cc1-c1cccc2c(Cl)c([C@H](C)Nc3ncnc4[nH]ccc(=O)c34)n(-c3ccccc3)c(=O)c12
Please indicate which has the smaller reported inhibition at 0.01 µM: I , or II . Return value: the label identifying the chosen record.
I
